B1: library; a variant is named by its letters at N, in order (parent)
chain: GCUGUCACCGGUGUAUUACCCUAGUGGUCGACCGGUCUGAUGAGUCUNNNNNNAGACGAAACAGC

# Variants of: B1
# Test description: FACS-Seq fitted mean relative fluorescence mCherry/BFP with ligand (log10 relative fluorescence); ligand: hypoxanthine (xanthine aptamer); ligand concentration (+) FACS-Seq: 5 mM; higher = higher reporter protein expression
# Condition set: HEK293T, ligand present: yes
Binning of FACS-Seq fitted mean (log10) into classes: class A = under 0.4, class B = from 0.4 up to 0.6, class C = 0.6 and over

Ask: Category of UAGCGG :
Reply: class B

Ask: Category of AAAGGC :
Reply: class A

Ask: Category of ACCUAC :
Reply: class A

Ask: Category of UGACUC :
Reply: class C

Ask: Category of GUAAAU :
Reply: class B

Ask: Category of UCAUCA :
Reply: class C

Ask: Category of AUCCGA :
Reply: class B

Ask: Category of CAAUGG :
Reply: class A

Ask: Category of UGGUUU :
Reply: class B

Ask: Category of CCUGAG :
Reply: class C

Ask: Category of UAAGAG :
Reply: class B

Ask: Category of AAAGAU :
Reply: class C

Ask: Category of AGCUUC :
Reply: class A

Ask: Category of AGGGUU :
Reply: class A

Ask: Category of GCUAUG :
Reply: class A

Ask: Category of GUGGAU :
Reply: class B

Ask: Category of GAGCUA :
Reply: class A

Ask: Category of CCCAAG :
Reply: class B

Ask: Category of UAACCC :
Reply: class C

Ask: Category of GAUAAG :
Reply: class B

Ask: Category of GGAUUG :
Reply: class B

Ask: Category of UUUUAU :
Reply: class A

Ask: Category of ACGUGA :
Reply: class A

Ask: Category of CAGCUC :
Reply: class A

Ask: Category of GAAUAG :
Reply: class B

Ask: Category of CUACAA :
Reply: class A

Ask: Category of GGGAGU :
Reply: class C

Ask: Category of AAAGCU :
Reply: class A

Ask: Category of GUAAUU :
Reply: class A

Ask: Category of AAAAAA :
Reply: class C

Ask: Category of AGAGGA :
Reply: class C

Ask: Category of ACGGGU :
Reply: class B

Ask: Category of UCGUGG :
Reply: class C

Ask: Category of UUAAAA :
Reply: class A

Ask: Category of UCAUGA :
Reply: class B

Ask: Category of AGAAAA :
Reply: class A

Ask: Category of AAGGUG :
Reply: class A

Ask: Category of ACAAAC :
Reply: class B

Ask: Category of AAGACC :
Reply: class A

Ask: Category of AAUCUA :
Reply: class C

Ask: Category of CCGAAG :
Reply: class B

Ask: Category of ACGGCG :
Reply: class B

Ask: Category of CCGGAC :
Reply: class B

Ask: Category of AAGAGG :
Reply: class B

Ask: Category of ACGAAA :
Reply: class B

Ask: Category of GCACCU :
Reply: class C

Ask: Category of CUUCAC :
Reply: class C

Ask: Category of GGUCAC :
Reply: class C

Ask: Category of GCUUUC :
Reply: class C

Ask: Category of UGGCUU :
Reply: class C

Ask: Category of GCAGUC :
Reply: class C

Ask: Category of AGUAGU :
Reply: class B

Ask: Category of UAGAAG :
Reply: class B

Ask: Category of CGUACA :
Reply: class B

Ask: Category of AUGUCU :
Reply: class A

Ask: Category of AGCCAG :
Reply: class C

Ask: Category of UCUAUG :
Reply: class B

Ask: Category of GACUCG :
Reply: class B

Ask: Category of GCUGGG :
Reply: class B

Ask: Category of GUUCAA :
Reply: class A

Ask: Category of ACGGAC :
Reply: class B

Ask: Category of AGAAAC :
Reply: class B

Ask: Category of ACAGAG :
Reply: class A

Ask: Category of UGUACA :
Reply: class C

Ask: Category of UGACAC :
Reply: class A

Ask: Category of CCGAUU :
Reply: class B

Ask: Category of GUGCGU :
Reply: class B

Ask: Category of CGUUGG :
Reply: class B

Ask: Category of AAAUAA :
Reply: class C

Ask: Category of ACAUGA :
Reply: class B

Ask: Category of UAGGUC :
Reply: class B

Ask: Category of GAUAUA :
Reply: class C

Ask: Category of AUUAGG :
Reply: class B

Ask: Category of GGUAGC :
Reply: class C

Ask: Category of GCCUAA :
Reply: class B

Ask: Category of GCUGCG :
Reply: class B

Ask: Category of UAAUCU :
Reply: class B

Ask: Category of GACUUG :
Reply: class A

Ask: Category of CAAGGU :
Reply: class A

Ask: Category of GAUGUU :
Reply: class B

Ask: Category of GAACAC :
Reply: class C

Ask: Category of UACCAG :
Reply: class A

Ask: Category of AUCGCC :
Reply: class A

Ask: Category of GGUGCG :
Reply: class C

Ask: Category of GUAGAA :
Reply: class A

Ask: Category of AACGAC :
Reply: class A
